Tested on: CSC propagation
Assay: IC-50s of metabolic agents for inhibiting CSC propagation (Table 3)
Type: cell-based
Conditions: Table 3, values given with nM; read-out: IC-50 for inhibiting CSC propagation
experimental readout: IC50 (nM)

1: O=C(Nc1ccc([N+](=O)[O-])cc1Cl)c1cc(Cl)ccc1O [Niclosamide]
2: CCc1c2c(nc3ccc(OC(=O)N4CCC(N5CCCCC5)CC4)cc13)-c1cc3c(c(=O)n1C2)COC(=O)[C@]3(O)CC [Irinotecan]
// compare: 1 vs 2 , metric IC50, want the smaller Give the label of your selection. 1
(1: 100 nM, 2: 500 nM)
